// reported APP Secretion by SH-SY-5Y Cells per item
test system: secreted APP; assay: ELISA for secreted APP in SHSY5Y cells; assay type: cell-based, human; conditions: Dose 20 uM, 16 hours
The response must be a number in % vehicle control with no trailing unit.

compound	APP Secretion by SH-SY-5Y Cells [% vehicle control]
CN1c2ccc(OC3CCCCO3)cc2[C@]2(C)CCNC12 (single isomer, unassigned; (-)) [MES 9320, (−)-O-Tetrahydropyranyl-N-1-noreseroline]	15.2

Give recorded APP Secretion by SH-SY-5Y Cells with secreted APP for the following compound: COc1ccc2c(c1)[C@]1(C)CCN(Cc3ccccc3)C1N2C=O (stereo partly shown)
113.6

Give recorded APP Secretion by SH-SY-5Y Cells with secreted APP for the following compound: COc1ccc2[nH]c3c(c2c1)CCN(C)C3
102

Give recorded APP Secretion by SH-SY-5Y Cells with secreted APP for the following compound: COc1ccc2[nH]cc(CCN)c2c1.Cl
100.5

Give recorded APP Secretion by SH-SY-5Y Cells with secreted APP for the following compound: COC(=O)CC1(C)C(=O)N(C)c2ccc(OC)cc21 (stereo not shown)
100.9

Give recorded APP Secretion by SH-SY-5Y Cells with secreted APP for the following compound: Clc1ccc(C2CC3CCC2N3)cn1 (stereo not shown)
106.7

Give recorded APP Secretion by SH-SY-5Y Cells with secreted APP for the following compound: COc1ccc2c(c1)C(C)C(=O)N2C (stereo not shown)
94.45

Give recorded APP Secretion by SH-SY-5Y Cells with secreted APP for the following compound: COc1ccc2c(c1)[C@]1(C)CCN(C)C1N2Cc1ccccc1 (stereo partly shown) [MES 9242]
116.1

* * *

tested on: SH-SY-5Y Cells; assay: MTS toxicity assay in SHSY5Y cells; type: cell-based, human; details: Dose 0.74 uM
// reported APP Toxicity SH-SY-5Y Cells (MTS assay) per item
The response must be a number in % vehicle control with no trailing unit.

Recorded results for 6 compounds are shown here.
> print(dat)
                                   compound  numeric.value
1  Cc1cc2c(cc1O)[C@]1(C)CCN(C)C1N2C (stereo partly shown) [MES 9267]          101.9
2  CN1CC[C@@]2(C)c3cc(O)ccc3N(C)C2NC1=O (single isomer, unassigned; (-)) [MES 9205]          105.6
3  CNC(C)c1cccc(OC)c1 (stereo not shown) [MES 9271]          103.1
4  COc1ccc2c(c1)c(CCN(C)C)cn2Cc1ccccc1 [MES 9191]          103.7
5  C[C@@]12CCN(Cc3ccccc3)C1Nc1ccc(O)cc12 (stereo partly shown) [MES 9279]          100.1
6  CC(Br)C(=O)N(C)c1ccc(O)cc1 (stereo not shown) [MES 9291, Propionanilde]           97.1

Continue with the next compound.
Query (compound): C[C@]12CCN(Cc3ccccc3)C1N(Cc1ccccc1)c1ccc(O)cc12 (stereo partly shown) [MES 9238] ; field requested: APP Toxicity SH-SY-5Y Cells (MTS assay)
106.4

* * *

Tested on: SH-SY-5Y Cells
Assay: MTS toxicity assay in SHSY5Y cells
Type: cell-based, human
Details: Dose 2 uM
Procedure: An enzyme-linked immunosorbent assay was developed to detect secreted APP in SHSY5Y cells, a human neuroblastoma cell line. The purpose of the screen was to discover small molecules that inhibit APP protein synthesis in SHSY5Y cells. […] Enzyme activity was assessed by incubation with […] TMB substrate solution (Moss no. TMB-US) for 20 minutes. […] Optical density was read at 450 nm on Wallac Victor2 plate reader. […] Of the 144 MES compounds screened, 12 inhibited secreted APP as determined by ELISA. […]
readout-kind: APP Toxicity SH-SY-5Y Cells (MTS assay) (% vehicle control)
The response must be a number in % vehicle control with no trailing unit.

> print(dat)
                                   molecule  numeric.value
1  COc1ccc2[nH]c3c(c2c1)CCN(C)C3 [MES 9316]          99.15

Continue with the next molecule.
Query (molecule): COC(=O)NCCC1C(=O)N(Cc2ccccc2)c2ccc(OC)cc21 (stereo not shown) [MES 9317] ; field requested: APP Toxicity SH-SY-5Y Cells (MTS assay)
97.27
